Hey, just so you know, these numbers are from patent US11401286B2.

- target-desc: PDE4D7 (Homo sapiens (Human), UniProt Q08499)
- Sequence (Q08499 other isoform, or with tags, fused parts or gaps): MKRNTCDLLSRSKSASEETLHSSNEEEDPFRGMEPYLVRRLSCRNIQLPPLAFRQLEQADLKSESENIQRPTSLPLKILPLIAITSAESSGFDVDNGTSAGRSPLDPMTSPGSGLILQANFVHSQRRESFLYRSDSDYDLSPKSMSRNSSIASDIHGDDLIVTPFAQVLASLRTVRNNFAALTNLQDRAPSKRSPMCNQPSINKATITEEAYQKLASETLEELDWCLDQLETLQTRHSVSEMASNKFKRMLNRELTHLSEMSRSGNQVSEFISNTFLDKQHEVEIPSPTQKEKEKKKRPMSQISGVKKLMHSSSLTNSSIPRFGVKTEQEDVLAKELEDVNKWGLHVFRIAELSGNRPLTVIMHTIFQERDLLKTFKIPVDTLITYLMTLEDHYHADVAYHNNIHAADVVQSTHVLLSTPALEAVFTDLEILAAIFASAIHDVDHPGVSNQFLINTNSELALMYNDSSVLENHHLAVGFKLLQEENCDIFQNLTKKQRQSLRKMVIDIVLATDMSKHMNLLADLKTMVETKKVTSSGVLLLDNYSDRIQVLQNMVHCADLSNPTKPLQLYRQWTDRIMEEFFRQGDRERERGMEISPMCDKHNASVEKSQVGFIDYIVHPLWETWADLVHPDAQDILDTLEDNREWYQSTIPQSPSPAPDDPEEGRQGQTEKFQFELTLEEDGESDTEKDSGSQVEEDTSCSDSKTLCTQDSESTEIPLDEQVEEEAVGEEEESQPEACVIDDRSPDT
- measurement-setup: read-out: PDE4D7 IC50; PDE4D7 without asterisk
pIC50: −log10 of the molar value. Where a name gives a salt, the structure may show the parent alone.
Each entry below lists one item and its recorded pIC50 value.

Some solved cases for reference:
compound | pIC50
Cc1ccc(C(=O)c2nc(-c3cccc(Cl)c3)nc3c2CCC3)cc1 [Example 70] | < 6.00
NC(=O)Cc1ccc(Nc2cc(-c3ccc[nH]3)nc3c2CCC3)cc1 [Example 133, hydrochloride] | < 6.00
NC(=O)Cc1ccc(Nc2nc(-c3ccccc3)nc3c2S(=O)(=O)CCC3)cc1 [Example 269] | > 6.00
NC(=O)Cc1ccc(Nc2nc(C3CCCC3)nc3c2S(=O)(=O)CCC3)cc1 [Example 286] | > 6.00
NC(=O)C(CO)Cc1ccc(Nc2cc(-c3cccc(Cl)c3)nc3c2CCC3)cc1 (stereo not drawn) [Example 108, hydrochloride] | > 6.00
NC(=O)Cc1ccc(Cc2cc(-c3cccc(Cl)c3)nc(C(F)(F)F)c2)cc1 [Example 144] | < 6.00

QUERY: Entry O=C(O)Cc1ccc(Nc2nc(-c3cccc(Cl)c3)nc(C3CC3)n2)cc1 [Example 36] : reported pIC50 = ?
RESULT: < 6.00

QUERY: Entry CCc1c(C)nc(-c2ccc(Cl)s2)nc1NCc1ccc(B(O)O)cc1 [Example 311] : reported pIC50 = ?
RESULT: < 6.00

QUERY: Entry O=C(O)Cc1ccc(Nc2cc(C(F)(F)F)nc(-c3ccc(Cl)s3)n2)cc1 [Example 296] : reported pIC50 = ?
RESULT: < 6.00

QUERY: Entry CCCNC(=O)Cc1ccc(Nc2nc(-c3ccccc3)nc3c2S(=O)(=O)CCC3)cc1 [Example 270] : reported pIC50 = ?
RESULT: > 6.00

QUERY: Entry NC(=O)Cc1ccc(Nc2cc(-c3cccc(Cl)c3)nc(C(F)(F)F)c2)cc1 [Example 145] : reported pIC50 = ?
RESULT: > 6.00

====

- target-desc: PDE4D7 (Homo sapiens (Human))
- measurement-setup: read-out: PDE4D7 IC50; PDE4D7 without asterisk
pIC50: −log10 of the molar value. Where a name gives a salt, the structure may show the parent alone.
observable: pIC50

Some solved cases for reference:
compound | pIC50
OCCc1ccc(Nc2cc(-c3cc(Cl)cc(Cl)c3)nc3c2CCC3)cc1 [Example 158, hydrochloride] | < 6.00
CCc1cc(Cc2ccc(Cn3cc(Cl)cn3)cc2)nc(-c2cccc(Cl)c2)n1 | > 6.00
OCCc1ccc(Nc2cc(C3CC3)nc(-c3cccc(Cl)c3)n2)cc1 | > 6.00

QUERY: Entry N#CCc1ccc(Nc2c(Cl)c(-c3cccc(Cl)c3)nc3c2CCC3)cc1 [Example 291, hydrochloride] : reported pIC50 = ?
RESULT: < 6.00

QUERY: Entry `O=C(O)c1ccc(Nc2nc(-c3cccc(Cl)c3)nc(C3CC3)n2)cc1` : reported pIC50 = ?
RESULT: > 6.00

QUERY: Entry Cc1cc(Nc2cc(-c3cccc(Cl)c3)nc3c2CCC3)ccc1CC#N [Example 109, hydrochloride] : reported pIC50 = ?
RESULT: < 6.00

QUERY: Entry CNC(=O)Cc1ccc(Nc2cc(-c3cccc(Cl)c3)nc3c2CCC3)cc1 [Example 120, hydrochloride] : reported pIC50 = ?
RESULT: < 6.00
